Value source: BindingDB's records for doi:10.1021/jm00127a026

Assay info: The apparent Km of compound as a substrate for partially purified mouse liver Folyl-polyglutamate synthase
Experimental parameters: read-out: Ki
Recorded endpoint: apparent Km (µM)
Respond numerically; units are µM and should not be typed.

[in] Request the reported apparent Km associated with NCCCC(NC(=O)c1ccc(SCc2ccc3nc(N)[nH]c(=O)c3c2)cc1)C(=O)O (stereo not given)
[out] 2.8

[in] Another molecule: NCCCC(NC(=O)c1ccc(OCc2ccc3nc[nH]c(=O)c3c2)cc1)C(=O)O (stereo not given)
[out] 1.2

[in] Another molecule: NCCCC(NC(=O)c1ccc(NCc2ccc3nc(N)nc(N)c3c2Cl)cc1)C(=O)O (stereo not given)
[out] 0.0017

[in] Another molecule: NCCCC(NC(=O)c1ccc(OCc2ccc3nc(N)[nH]c(=O)c3c2)cc1)C(=O)O (stereo not given)
[out] 5.9

[in] Another molecule: NCCCC(NC(=O)c1ccc(SCc2ccc3nc[nH]c(=O)c3c2)cc1)C(=O)O (stereo not given)
[out] 0.42
